Exercise: for every item that follows, state its recorded GTPγ S binding promoting activity (EC50 nM).
biological target: human GPR8 (human, UniProt P48146 1-333); test: cell-based or functional assay
Sequence (P48146 whole entry): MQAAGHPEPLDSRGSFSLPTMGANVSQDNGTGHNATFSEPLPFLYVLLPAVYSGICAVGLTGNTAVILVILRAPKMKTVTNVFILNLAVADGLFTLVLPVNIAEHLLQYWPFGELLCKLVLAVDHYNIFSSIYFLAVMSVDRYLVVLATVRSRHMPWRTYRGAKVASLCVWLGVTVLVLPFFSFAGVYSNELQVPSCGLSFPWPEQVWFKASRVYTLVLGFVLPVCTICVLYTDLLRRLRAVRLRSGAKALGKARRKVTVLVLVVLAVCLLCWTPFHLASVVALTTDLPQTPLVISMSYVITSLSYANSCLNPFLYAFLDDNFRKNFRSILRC
Numbers only, in nM.

> print(dat)
                                     binder  numeric.result
1  WYKHVASPRYHTVGRAAGLL [human GPR8 ligand (1-20)]            0.86
2  WYKHVASPRYHTVGRAAGLLXGL (Met (O) (methionine sulfoxide) at position 21) [oxidized human GPR8 ligand (1-23)]             1.4

# per-item lookup of GTPγ S binding promoting activity (EC50 nM); items listed below
1. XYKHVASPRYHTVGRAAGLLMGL (D-Trp at position 1) [[D-Trp1]-human GPR8 ligand (1-23)]
2. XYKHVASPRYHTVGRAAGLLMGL (Nα-acetyl on Trp1) [[Nα-Acetyl-Trp1]-human GPR8 ligand (1-23)]
3. RYHTVGRAAGLLMGL [human GPR8 ligand (9-23)]
4. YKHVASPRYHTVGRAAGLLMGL [human GPR8 ligand (2-23)]
5. WYKHTASPRYHTVGRAAGLLMGL [porcine GPR8 ligand (1-23)]

1: 7.1; 2: 14; 3: 4200; 4: 3900; 5: 1.5
